ASSAY_SYSTEM: GlcNAc(b1-6)Gal(b1-4)GlcNAc
RUN_DESCRIPTION: glycan array binding signal (z-score within array); higher = stronger binding
CONDITION_SUMMARY: glycan notation: IUPAC condensed, linker removed
The entries come from a sample that favours the strongest signals as a whole.
ENDPOINT_NAME: glycan array binding signal (z-score)
A bare number is all that is needed in reply.

# lookup: glycan array binding signal (z-score) of SSA (Sclerotinia sclerotiorum), A7XUK7 (protein) MGFKGVGTYEIVPYQAPSLNLNAWEGKLEPGAVVRTYTRGDKPSDNAKWQVALVAGSGDSAEYLIINVHSGYFLTATKENHIVSTPQISPTDPSARWTIKPATTHQYEVFTINNKVSELGQLTVKDYSTHSGADVLSASAKTADNQKWYFDAK
-0.344

# lookup: glycan array binding signal (z-score) of Epa9 (Candida glabrata), CAGL0A01386g (protein) MGSSHHHHHHSSGLVPRGSHMDITPFAHYPRPEGCSSPPNAVSVGLHMDLYNYPYLYVKNPRTGFTNDTDSDADGETDGDSAGGIEGRAGQCWNPEYQDPNFPRYGYKKYGSFGSSDHVNGKISWDHNEFKEGCKPIMARLPTAYNYPAKITFSNFTMVLSGYFKPKSTGLYKFEIHADDFILFNFGSKNAFECCNREESIDNFGPYVAYAMWPNEADQELEVYLFEDSYYPIRLFYNNRDYHSKFMVGFYPPNTEEITYDFDGYLYMLDDTGNECKDSIRYKTVCDD
0.361

# lookup: glycan array binding signal (z-score) of StdA (Salmonella typhimurium), Q8Z3Z0 (protein) MAAAGMMYGASVFAADTTPTAGPFGSGKILFTGTITNSPCDIAPGDDAITVPFGQISYRKLNTANATTDSKPFTIHLQNCAFDPNETTIAGSAGKMSKVTVSFSGTADTSGKAYVSTGSAQHVGVQLLKGDNTSLITPNTPMPDGDAQQLQAGNNELNFFARLIALTDAATPGDVNASVTYTLKYL
0.557

# lookup: glycan array binding signal (z-score) of Apa (Mycobacterium tuberculosis), Rv1860 (protein) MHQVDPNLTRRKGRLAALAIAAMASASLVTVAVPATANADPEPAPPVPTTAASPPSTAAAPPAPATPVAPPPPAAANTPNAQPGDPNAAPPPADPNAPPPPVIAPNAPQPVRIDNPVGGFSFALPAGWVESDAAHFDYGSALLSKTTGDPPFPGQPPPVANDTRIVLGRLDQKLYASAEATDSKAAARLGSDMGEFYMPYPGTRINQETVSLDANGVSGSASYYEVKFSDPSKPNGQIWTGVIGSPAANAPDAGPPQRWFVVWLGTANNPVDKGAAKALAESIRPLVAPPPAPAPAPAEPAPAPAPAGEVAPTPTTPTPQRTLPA
-0.453
